Cited source for all entries: paper PMC4633329

Assay: OA solubility from NMR visible EFG
Assay type: physicochemical
Settings: 30 mM Tris buffer, 35 °C, pH 12, aqueous buffer, kinetic from dmso stock
observed.property: Solubility (µM)
# output: bare number, implied unit µM

For the molecule CCCCCCCC/C=C\CCCCCCCC(=O)O , report Solubility.
2990

----------
Target: MbCN (Equus caballus)
Sequence (P68082 whole entry): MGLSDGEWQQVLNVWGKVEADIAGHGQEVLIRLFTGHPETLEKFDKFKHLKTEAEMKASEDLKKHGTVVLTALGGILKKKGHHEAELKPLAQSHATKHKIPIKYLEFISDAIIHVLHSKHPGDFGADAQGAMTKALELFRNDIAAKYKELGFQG
Assay: 1H NMR titration of MbCN with OA
Assay type: binding, horse
Conditions: Dissociation Constant KMb2 (non-specific binding), 2-site model, high OA:Mb
observed.property: Kd (mM)
The reply should be a number in mM, with the unit left off.

Indicate the recorded Kd value for this compound: CCCCCCCC/C=C\CCCCCCCC(=O)O [OA, oleic acid]
37
